Entry source: patent US9809574B2

As shown below, each of these compounds has a reported IC50 value.
Tested on: RS4; 11 leukaemia cell line
Test: In vitro cytotoxicity, Microculture Tetrazolium Assay (MTT)
Assay type: cell-based
Details: Homo sapiens, 11 cells exposed for 48 hours
Measured property: IC50 (nM)

compound=Cc1c(C(=O)N(C)c2ccc(O)cc2)cc(-c2cc3c(cc2C(=O)N2Cc4ccccc4C[C@H]2C)CN(C(=O)Oc2ccc(Cl)cc2)C3)n1C measured_property=IC50 qualifier_sign== value_reported=31
compound="Cc1c(C(=O)N(C)c2ccc(O)cc2)cc(-c2cc3c(cc2C(=O)N2Cc4ccccc4C[C@H]2C)CN(C(=O)OC2CCS(=O)(=O)C2)C3)n1C (stereo partly drawn)" measured_property=IC50 qualifier_sign=> value_reported=600
compound=Cc1c(C(=O)N(C)c2ccc(O)cc2)cc(-c2cc3c(cc2C(=O)N2Cc4ccccc4C[C@H]2C)CN(C(=O)OC2CCCCC2)CC3)n1C measured_property=IC50 qualifier_sign== value_reported=20

====

Tested on: RS4; 11 leukaemia cell line
Experiment: In vitro cytotoxicity, Microculture Tetrazolium Assay (MTT)
Format: cell-based
Conditions: Homo sapiens, 11 cells exposed for 48 hours
As shown below, each of these compounds has a reported log10 IC50 value.
Measured property: log10 IC50 (log10 of the value in nM)

chemical_smiles=C[C@H](C(=O)N1CCc2cc(-c3cc(C(=O)N(C)c4ccc(O)cc4)c4n3CCCC4)c(C(=O)N3Cc4ccccc4C[C@H]3C)cc2C1)c1ccccc1 value_reported=1.59
chemical_smiles=Cc1c(C(=O)N(C)c2ccccc2)cc(-c2cc3c(cc2C(=O)N2Cc4ccccc4C[C@H]2CN2CCOCC2)CN(C(=O)Cc2ccccc2)CC3)n1C value_reported=1.59
chemical_smiles=CN(C(=O)c1cc(-c2cc3c(cc2C(=O)N2Cc4ccccc4C[C@H]2CN2CCOCC2)CN(S(=O)(=O)Cc2ccccc2)CC3)n2c1CCCC2)c1ccc(O)cc1 value_reported=1.85
chemical_smiles=CN(C(=O)c1cc(-c2cc3c(cc2C(=O)N2Cc4ccccc4C[C@H]2CN2CCOCC2)CN(C(=O)Oc2ccc(Cl)cc2)CC3)n2c1CCCC2)c1ccc(O)cc1 value_reported=0.73
chemical_smiles=Cc1ccc(OC(=O)N2Cc3cc(C(=O)N4Cc5ccccc5C[C@H]4C)c(-c4cc(C(=O)N(C)c5ccc(O)cc5)c5n4CCCC5)cc3C2)cc1 value_reported=0.82
chemical_smiles=CN(C(=O)c1cc(-c2cc3c(cc2C(=O)N2Cc4ccccc4C[C@H]2CN2CCOCC2)CN(C(=O)OCc2ccccc2)CC3)n2c1CCCC2)c1ccc(O)cc1 value_reported=1.28

====

Tested on: RS4; 11 leukaemia cell line
Experiment: In vitro cytotoxicity, Microculture Tetrazolium Assay (MTT)
Assay type: cell-based
Conditions: Homo sapiens, 11 cells exposed for 48 hours
Measured property: log10 IC50 (log10 of the value in nM)

chemical_smiles=C[C@@H]1Cc2ccccc2CN1C(=O)c1cc2c(cc1-c1cc(C(=O)N(C)c3ccc(O)cc3)c3n1CCCC3)CN(CCc1ccccc1)C2 value_reported=2.36
chemical_smiles=C[C@@H]1Cc2ccccc2CN1C(=O)c1cc2c(cc1-c1cc(C(=O)N(C)c3ccc(O)cc3)c3n1CCCC3)CN(C(=O)Nc1ccc(N3CCN(C)CC3)cc1)C2 value_reported=1.71
chemical_smiles=CN(C(=O)c1cc(-c2cc3c(cc2C(=O)N2Cc4ccccc4C[C@H]2CN2CCOCC2)CN(C(=O)Oc2ccc(OC(F)(F)F)cc2)CC3)n2c1CCCC2)c1ccc(O)cc1 value_reported=1.69
chemical_smiles=CN(C(=O)c1cc(-c2cc3c(cc2C(=O)N2Cc4ccccc4C[C@H]2CN2CCOCC2)CN(C(=O)Oc2ccc(-n4ccnc4)cc2)CC3)n2c1CCCC2)c1ccc(O)cc1 value_reported=0.97
chemical_smiles=CC(=O)Nc1ccc(OC(=O)N2CCc3cc(-c4cc(C(=O)N(C)c5ccc(O)cc5)c5n4CCCC5)c(C(=O)N4Cc5ccccc5C[C@H]4C)cc3C2)cc1 value_reported=0.83
chemical_smiles=COc1ccc(CCCN2Cc3cc(C(=O)N4Cc5ccccc5C[C@H]4C)c(-c4cc(C(=O)N(C)c5ccc(O)cc5)c(C)n4C)cc3C2)cc1 value_reported=2.26
chemical_smiles=Cc1c(C(=O)N(C)c2ccccc2)cc(-c2cc3c(cc2C(=O)N2Cc4ccccc4C[C@H]2CCCN2CCOCC2)CN(C(=O)OC2CCCCC2)CC3)n1C value_reported=1.97
chemical_smiles=Cc1c(C(=O)N(C)c2ccc(O)cc2)cc(-c2cc3c(cc2C(=O)N2Cc4ccccc4C[C@H]2CN2CCOCC2)CN(C(=O)Oc2ccc(Cl)c(Cl)c2)CC3)n1C value_reported=1.63
chemical_smiles=Cc1c(C(=O)N(C)c2ccccc2)cc(-c2cc3c(cc2C(=O)N2Cc4ccccc4C[C@H]2C)CN(C(=O)Oc2ccc(C#N)cc2)CC3)n1C value_reported=1.38
chemical_smiles=Cc1c(C(=O)N(C)c2ccccc2)cc(-c2cc3c(cc2C(=O)N2Cc4ccccc4C[C@H]2C)CN(C(=O)Oc2cccc(OCCN(C)C)c2)CC3)n1C value_reported=0.91
chemical_smiles=Cc1c(C(=O)N(C)c2ccc(O)cc2)cc(-c2cc3c(cc2C(=O)N2Cc4ccccc4C[C@H]2CN2CCOCC2)CN(C(=O)/C=C/c2ccc(Cl)c(Cl)c2)CC3)n1C value_reported=1.67
chemical_smiles=Cc1c(C(=O)N(C)c2ccccc2)cc(-c2cc3c(cc2C(=O)N2Cc4ccccc4C[C@H]2CN2CCOCC2)CN(C(=O)Oc2cnc4[nH]ccc4c2)CC3)n1C value_reported=1.34
chemical_smiles=Cc1c(C(=O)N(C)c2ccc(O)cc2)cc(-c2cc3c(cc2C(=O)N2Cc4ccccc4C[C@H]2CN2CCOCC2)CN(C(=O)OC2CCCC2)CC3)n1C value_reported=1.68
chemical_smiles=C[C@@H]1Cc2ccccc2CN1C(=O)c1cc2c(cc1-c1cc(C(=O)N(C)c3ccc(O)cc3)c3n1CCCC3)CCN(S(=O)(=O)c1ccc3ccccc3c1)C2 value_reported=1.89
chemical_smiles=COc1ccccc1OC(=O)N1CCc2cc(-c3cc(C(=O)N(C)c4ccc(O)cc4)c4n3CCCC4)c(C(=O)N3Cc4ccccc4C[C@H]3CN3CCOCC3)cc2C1 value_reported=0.91
chemical_smiles=CN(C(=O)c1cc(-c2cc3c(cc2C(=O)N2Cc4ccccc4C[C@H]2CN2CCOCC2)CN(C(=O)Oc2ccc(F)cc2)CC3)n2c1CCCC2)c1ccc(O)cc1 value_reported=0.91
chemical_smiles=C[C@@H]1Cc2ccccc2CN1C(=O)c1cc2c(cc1-c1cc(C(=O)N(C)c3ccc(O)cc3)c3n1CCCC3)CN(C(=O)Cc1ccc(OC(F)(F)F)cc1)C2 value_reported=1.93
chemical_smiles=C[C@@H]1Cc2ccccc2CN1C(=O)c1cc2c(cc1-c1cc(C(=O)N(C)c3ccc(O)cc3)c3n1CCCC3)CN(C(=O)COc1ccc(Cl)cc1)C2 value_reported=1.76
chemical_smiles=C[C@@H]1Cc2ccccc2CN1C(=O)c1cc2c(cc1-c1cc(C(=O)N(C)c3ccc(O)cc3)c3n1CCCC3)CN(C(=O)NCc1ccccc1)C2 value_reported=1.93
chemical_smiles=C[C@@H]1Cc2ccccc2CN1C(=O)c1cc2c(cc1-c1cc(C(=O)N(C)c3ccc(O)cc3)c3n1CCCC3)CN(C(=O)Nc1ccccc1)C2 value_reported=1.66
chemical_smiles=CCN(C(=O)c1cc(-c2cc3c(cc2C(=O)N2Cc4ccccc4C[C@H]2CN2CCOCC2)CN(C(=O)Cc2ccccc2)CC3)n(C)c1C)c1ccc(O)cc1 value_reported=1.23
chemical_smiles=C[C@@H]1Cc2ccccc2CN1C(=O)c1cc2c(cc1-c1cc(C(=O)N(c3ccccc3)c3ccc(O)cc3)c3n1CCCC3)CNC2 value_reported=2.65

====

Target: Bcl-2 protein (histag-Bcl-2, UniProtKB P10415) (Homo sapiens (Human), UniProt P10415)
Sequence (P10415 whole entry): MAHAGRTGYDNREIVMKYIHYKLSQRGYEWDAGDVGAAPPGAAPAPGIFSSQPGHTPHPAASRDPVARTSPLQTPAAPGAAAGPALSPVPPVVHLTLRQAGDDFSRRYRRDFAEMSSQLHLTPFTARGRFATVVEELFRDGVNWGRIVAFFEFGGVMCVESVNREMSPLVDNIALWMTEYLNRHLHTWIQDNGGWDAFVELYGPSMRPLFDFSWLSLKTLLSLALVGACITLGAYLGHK
Experiment: Inhibition of Bcl-2 by the fluorescence polarisation technique
Format: binding
Conditions: fluorescence polarisation test; incubation for 2 hours; read-out: IC50 (nM) Bcl-2 FP
Description: For partial inhibitors, the percentage fluorescence polarisation inhibition for a given concentration of the test compound is indicated.
Measured property: log10 IC50 (log10 of the value in nM)

compound=Cc1c(C(=O)N(C)c2ccc(O)cc2)cc(-c2cc3c(cc2C(=O)N2Cc4ccccc4C[C@H]2CN2CCN(C)CC2)CN(C(=O)Oc2cccc(C(=O)O)c2)CC3)n1C value_reported=0.18
compound=Cc1ccc(OC(=O)N2CCc3cc(-c4cc(C(=O)N(C)c5ccccc5)c(C)n4C)c(C(=O)N4Cc5ccccc5C[C@H]4CN4CCOCC4)cc3C2)cc1 value_reported=0.40
compound="C[C@@H]1Cc2ccccc2CN1C(=O)c1cc2c(cc1-c1cc(C(=O)N(C)c3ccc(O)cc3)c3n1CCCC3)CCN(C(=O)N1CCC(c3ccccc3)C1)C2 (stereo partly drawn)" value_reported=0.97
compound=CCCCN(CCCC)C(=O)c1cc(-c2cc3c(cc2C(=O)N2Cc4ccccc4C[C@H]2C)CN(C(=O)Oc2ccccc2)CC3)n(C)c1C value_reported=1.43
compound=C[C@@H]1Cc2ccccc2CN1C(=O)c1cc2c(cc1-c1cc(C(=O)N(C)c3ccc(O)cc3)c3n1CCCC3)CN(C(=O)Cc1ccccc1)C2 value_reported=0.90
compound=C[C@@H]1Cc2ccccc2CN1C(=O)c1cc2c(cc1-c1cc(C(=O)N(C)c3ccc(O)cc3)c3n1CCCC3)CN(CCC1CCCCC1)C2 value_reported=1.45
